Catalogue of IC50 values
testedTarget: Dual specificity tyrosine-phosphorylation-regulated kinase 1A (Homo sapiens)
experimentalProtocol: Inhibition of DYRK1A (unknown origin) using DYRKtide as substrate by ATP regenerative NADH consuming assay
assayConditions: read-out: IC50
Numbers only; they are read as µM.

Tell me measured IC50 for "NS(=O)(=O)c1ccc(-c2cnc3[nH]cc(-c4cccnc4)c3c2)cc1" please. 0.216

// switching to the query compound
Tell me measured IC50 for "O=C(NCCN1CCOCC1)Nc1cccc(-c2ccc3nc(NC(=O)C4CC4)sc3n2)c1" please. 3.5

###

testedTarget: UniProt:Q13627
experimentalProtocol: Inhibition of DYRK1A (unknown origin) using DYRKtide as substrate by ATP regenerative NADH consuming assay
assayConditions: read-out: Ki
metric: Ki (nM)
Numbers only; they are read as nM.

Give Ki; test system UniProt:Q13627; compound "CN1C(=O)[C@H]2CCC[C@H]2N(C2CCCC2)c2nc(Nc3ccc(C(N)=O)cc3)ncc21" 2020

New cases:
Give Ki; test system UniProt:Q13627; compound "NS(=O)(=O)c1ccc(-c2cnc3[nH]cc(-c4cccnc4)c3c2)cc1" 104

Give Ki; test system UniProt:Q13627; compound "C=CC(=O)Nc1ccc(C(=O)c2sc(Nc3ccc(N4CCN(C)CC4)cc3OC)nc2N)cc1" 575

Give Ki; test system UniProt:Q13627; compound "Nc1cccc(-c2cnc3[nH]cc(-c4cccnc4)c3c2)c1" 158

Give Ki; test system UniProt:Q13627; compound "O=C(NCCN1CCOCC1)Nc1cccc(-c2ccc3nc(NC(=O)C4CC4)sc3n2)c1" 1680

Give Ki; test system UniProt:Q13627; compound "O=c1ccc2cnc3ccc(-c4cn[nH]c4)cc3c2n1-c1ccc(F)cc1C(F)(F)F" 252

Give Ki; test system UniProt:Q13627; compound "COc1cc(N2CCN(C)CC2)ccc1Nc1nc(N)c(C(=O)c2ccccc2)s1" 383
